Each recorded value in this set is attributed to ChEMBL document CHEMBL4699542.

Could you please report measured AUClast for the items listed next?
Assay: AUClast in CD-1 mouse at 1 mg/kg, iv administered as single dose measured up to 24 hrs
Format: ADME, organism-based
Set-up: route intravenous, dose 1 mg/kg, time <=24
Conditions: in vivo
Numbers only, in ng·h/mL.

For the 5 compounds below, give their AUClast values.
1. CCn1nc(C(F)(F)F)cc1Nc1nc(-c2ccc(-n3cnc(C)c3)c(OC)n2)cs1
2. CCn1nc2c(c1Nc1nc(-c3ccc(-n4cnc(C)c4)c(OC)n3)cs1)CCCC2
3. CCn1nc(C2(C)CC2)cc1Nc1nc(-c2ccc(-n3cnc(C)c3)c(OC)n2)cs1
4. CCn1nc2c(c1Nc1nc(-c3ccc(-n4cnc(C)c4)c(OC)n3)cs1)CCC2
5. COc1nc(-c2csc(Nc3c4c(nn3C)CCC4)n2)ccc1-n1cnc(C)c1

Given back:
1. 605
2. 443
3. 1247
4. 376
5. 723
